tested on: LOX IMVI; assay: NCI tumour cell line growth inhibition, 48 h
Calls of active or inactive are those of the source. Rule as the data show it: active = GI50 up to about 1.1 µM and inactive = higher.
metric: GI50

Solved cases below.
{"compound": "CCC1=C(c2ccc(OC)cc2)CC[C@@]2(CCNC2=O)[C@@H]1C", "system.under.test": "LOX IMVI", "reading": "> 75 µM (inactive)"}
{"compound": "CN(C)c1ccc(NN=C2SC(=N\\c3ccccc3)/C(=N/c3ccccc3)S2)cc1", "system.under.test": "LOX IMVI", "reading": "22.1 µM (inactive)"}

Below are 8 compounds. Give each one its GI50.
1. COc1ccc2c(CCN)c(C(=O)O)[nH]c2c1
2. CNC1(C(=O)O)CC1
3. Cc1nn(C(=O)CC(=O)Nc2ccc(Cl)cc2)c(C)c1/N=N/c1ccccc1C(=O)O
4. C=C(CO)[C@H]1Oc2ccc(C(C)=O)cc2[C@@H]1O
5. CC(=O)CSCc1ccccn1
6. COC(=O)C1C(C)N1C (configuration not stated)
7. Cc1c(C(=O)O)n2cnnc2c2ccccc12
8. O=C(OCCOCCOC(=O)c1c[nH]cc1-c1ccccc1)c1c[nH]cc1-c1ccccc1

Result:
> 100 µM (inactive)
> 100 µM (inactive)
> 100 µM (inactive)
> 100 µM (inactive)
41.5 µM (inactive)
> 100 µM (inactive)
> 100 µM (inactive)
16.4 µM (inactive)

# per-item lookup of GI50; items listed below
1. N[C@H](C(=O)O)[C@@H]1CC(Cl)=NO1 [ACIVICIN]
2. Cc1ccc([S@+]([O-])c2occc2C=O)cc1
3. COc1cc(OC)c2c(c1)C(=O)C(CC(C)O)=CC2=O (configuration not stated)

Result:
1: 1.46 µM (inactive); 2: 1.81 µM (inactive); 3: 5.97 µM (inactive)

Okay, here is my list. What is GI50 for each of these?
1. CCCCCCCCCCCCCCCCCC(=O)OCC(CN(C)CCN(C)C)OC(=O)CCCCCCCCCCCCCCCCC (configuration not stated)
2. CSc1c(CC(=O)O)n(Cc2ccccc2)c2ccccc12

Result:
1. > 100 µM (inactive)
2. > 100 µM (inactive)

Parameter requested: GI50. Apply to each item below.
1. CNC(=O)N1CN(c2ccccc2)C2(CCN(Cc3ccccc3)CC2)C1=O
2. Cc1ccc(C)c(N2C(=O)C(=O)C(c3nc4ccccc4s3)/C(=N\c3cccc4c(=O)[nH][nH]c(=O)c34)C2=O)c1 (configuration not stated)

Result:
1: 50.5 µM (inactive); 2: > 100 µM (inactive)
